Values were extracted from patent US11584744B2.

biological target: recombinant S. aureus MetRS enzyme (Staphylococcus aureus); experiment: Inhibition of SaMetRS, ATP depletion assay; format: biochemical; conditions: recombinant enzyme; lower limit of detection 0.025 μM; read-out: MetRS S. aureus (enzyme) IC50
Sequence (A0A0H2XID2 2-657): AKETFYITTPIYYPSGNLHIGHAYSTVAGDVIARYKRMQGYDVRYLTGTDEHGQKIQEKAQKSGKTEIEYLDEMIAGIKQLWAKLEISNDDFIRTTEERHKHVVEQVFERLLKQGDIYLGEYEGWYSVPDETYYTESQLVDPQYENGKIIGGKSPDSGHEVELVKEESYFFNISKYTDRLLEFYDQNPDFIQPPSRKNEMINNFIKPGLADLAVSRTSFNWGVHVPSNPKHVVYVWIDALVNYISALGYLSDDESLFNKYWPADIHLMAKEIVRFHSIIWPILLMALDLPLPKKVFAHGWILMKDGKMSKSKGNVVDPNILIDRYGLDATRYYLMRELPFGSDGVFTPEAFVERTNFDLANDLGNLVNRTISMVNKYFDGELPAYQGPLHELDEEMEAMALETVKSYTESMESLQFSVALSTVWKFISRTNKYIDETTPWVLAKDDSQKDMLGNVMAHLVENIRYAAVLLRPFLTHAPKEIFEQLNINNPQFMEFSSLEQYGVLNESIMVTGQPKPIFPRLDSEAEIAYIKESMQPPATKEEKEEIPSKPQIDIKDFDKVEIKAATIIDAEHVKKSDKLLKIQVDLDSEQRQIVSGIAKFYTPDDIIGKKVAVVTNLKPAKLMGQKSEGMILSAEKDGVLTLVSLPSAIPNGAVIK
pIC50: −log10 of the molar value.
Value Kind: pIC50

Before answering, review these 2 worked examples.
[
  {
    "Entry Smiles": "CCn1c(Cc2ccc(OC)cc2Cl)cn(Cc2nc3nc(Cl)ccc3[nH]2)c1=O",
    "pIC50": "> 7.60"
  },
  {
    "Entry Smiles": "CCn1c(Cc2ccc(Cl)cc2Cl)cn(Cc2nc3nc(F)ccc3[nH]2)c1=O",
    "pIC50": "> 7.60"
  }
]

Could you now look at the following compound, please?
Input line: Endpoint output: pIC50 of CN[C@H](CC(C)C)C(=O)N[C@H]1C(=O)N[C@@H](CC(N)=O)C(=O)N[C@H]2C(=O)N[C@H]3C(=O)N[C@H](C(=O)N[C@H](C(=O)O)c4cc(O)cc(O)c4-c4cc3ccc4O)[C@H](O)c3ccc(c(Cl)c3)Oc3cc2cc(c3O[C@@H]2O[C@H](CO)[C@@H](O)[C@H](O)[C@H]2O[C@H]2C[C@](C)(N)[C@H](O)[C@H](C)O2)Oc2ccc(cc2Cl)[C@H]1O . Value?
Output line: < 5.00

----------
test: Liver microsome stability; format: in vitro ADME; conditions: human, human liver microsomes, read-out: Microsome stability: Human T½
Each item that follows carries a reported half-life at 1 μM.
Answer with a number only, understood to be in min.

Before answering, review these 5 worked examples.
[
  {
    "Molecule": "CCn1c(Cc2ccc(OC)cc2Cl)cn(Cc2nc3nc(F)ccc3[nH]2)c1=O",
    "Value Kind": "half-life at 1 μM",
    "Reported Measurement": 15.2
  },
  {
    "Molecule": "CCn1c(Cc2ccc(OC)cc2Cl)cn(Cc2nc3nc(Cl)ccc3[nH]2)c1=O",
    "Value Kind": "half-life at 1 μM",
    "Reported Measurement": 8.3
  },
  {
    "Molecule": "Fc1ccc2nc(NCCCN[C@@H]3CCNc4c(Cl)cc(Cl)cc43)[nH]c2n1 [Compound 1717, reference compound]",
    "Value Kind": "half-life at 1 μM",
    "Reported Measurement": 10.3
  },
  {
    "Molecule": "Fc1ccc2nc(NCCCNCc3cc(Cl)cc(Cl)c3)[nH]c2n1",
    "Value Kind": "half-life at 1 μM",
    "Reported Measurement": 9.8
  },
  {
    "Molecule": "COc1cc(Cl)c(-c2cccc3nc(Cc4nc5nc(Cl)ccc5[nH]4)cn23)cc1OC",
    "Value Kind": "half-life at 1 μM",
    "Reported Measurement": 16.4
  }
]

Input line: Recorded half-life at 1 μM for CCn1c(Cc2ccc(Cl)cc2Cl)cn(Cc2nc3nc(F)ccc3[nH]2)c1=O , please?
Output line: 12.6

Input line: Which half-life at 1 μM value is on record for O=c1[nH]c(Cc2ccc(Cl)cc2Cl)cn1Cc1nc2ccc(F)nc2[nH]1 [Compound 1962, reference compound] ?
Output line: 25.9

----------
molecular target: MetRS (C. parvum) (Cryptosporidium parvum); test: MetRS (C. parvum) enzyme inhibition; assay type: biochemical; conditions: read-out: (C) MetRS (C. parvum) IC50
Sequence (Q5CVN0 entry or part of it): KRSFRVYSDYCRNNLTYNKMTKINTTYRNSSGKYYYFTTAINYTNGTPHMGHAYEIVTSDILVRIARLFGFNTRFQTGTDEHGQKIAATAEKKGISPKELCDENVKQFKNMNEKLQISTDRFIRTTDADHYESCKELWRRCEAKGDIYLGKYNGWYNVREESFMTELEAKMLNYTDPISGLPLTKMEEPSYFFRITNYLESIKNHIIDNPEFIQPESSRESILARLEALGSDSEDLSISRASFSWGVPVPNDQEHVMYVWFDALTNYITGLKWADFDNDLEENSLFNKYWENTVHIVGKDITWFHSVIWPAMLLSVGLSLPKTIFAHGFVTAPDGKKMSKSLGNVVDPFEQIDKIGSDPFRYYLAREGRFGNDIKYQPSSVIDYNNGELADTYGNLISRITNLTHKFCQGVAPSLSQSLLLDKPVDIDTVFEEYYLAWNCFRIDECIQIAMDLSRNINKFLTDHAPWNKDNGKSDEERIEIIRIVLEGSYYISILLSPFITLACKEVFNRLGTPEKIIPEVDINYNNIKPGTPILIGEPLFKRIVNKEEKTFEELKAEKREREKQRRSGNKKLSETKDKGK
Value Kind: pIC50
Would you please state pIC50, meaning minus log10 of the concentration in mol/L, as a bare number?

Example entries begin here.
[
  {
    "Compound": "O=c1[nH]c(C(O)c2ccc(Cl)cc2Cl)cn1Cc1nc2nc(Cl)ccc2[nH]1 (stereo not shown) [Compound 2202]",
    "Subject Of Test": "MetRS (C. parvum) (Cryptosporidium parvum)",
    "Reported Measurement": 6.67
  },
  {
    "Compound": "CC(C)(O)Cn1c(Cc2ccc(Cl)cc2Cl)cn(Cc2nc3ccc(Cl)nc3[nH]2)c1=O [Compound 2211]",
    "Subject Of Test": "MetRS (C. parvum) (Cryptosporidium parvum)",
    "Reported Measurement": 7.30
  },
  {
    "Compound": "COc1ccc(-c2cnc3ccc(NCc4nc5nc(F)ccc5[nH]4)cn23)c(Cl)c1 [Compound 2173]",
    "Subject Of Test": "MetRS (C. parvum) (Cryptosporidium parvum)",
    "Reported Measurement": 6.73
  },
  {
    "Compound": "CS(=O)(=O)c1nc(Cc2ccc(Cl)cc2Cl)cn1Cc1nc2ccc(F)nc2[nH]1 [Compound 2105]",
    "Subject Of Test": "MetRS (C. parvum) (Cryptosporidium parvum)",
    "Reported Measurement": 6.96
  }
]

Input line: # query: pIC50 of entry COC(=O)c1c(Cl)ccc2[nH]c(Cc3cn4c(-c5ccc(OC)cc5Cl)cccc4n3)nc12 [Compound 2236]
Output line: 6.47

Input line: Please look up its pIC50: CCn1c(C(O)c2ccc(Cl)cc2Cl)cn(Cc2nc3nc(Cl)ccc3[nH]2)c1=O (stereo not shown) [Compound 2204]
Output line: 7.08
